Reference source for all entries: patent US20260125378A2

Target: Full length DGKζ (in-house protein M1-V929) (Homo sapiens, UniProt Q13574)
Construct: His (N); TEV site (N)
Sequence (Q13574 1-929 isoform Q13574-4): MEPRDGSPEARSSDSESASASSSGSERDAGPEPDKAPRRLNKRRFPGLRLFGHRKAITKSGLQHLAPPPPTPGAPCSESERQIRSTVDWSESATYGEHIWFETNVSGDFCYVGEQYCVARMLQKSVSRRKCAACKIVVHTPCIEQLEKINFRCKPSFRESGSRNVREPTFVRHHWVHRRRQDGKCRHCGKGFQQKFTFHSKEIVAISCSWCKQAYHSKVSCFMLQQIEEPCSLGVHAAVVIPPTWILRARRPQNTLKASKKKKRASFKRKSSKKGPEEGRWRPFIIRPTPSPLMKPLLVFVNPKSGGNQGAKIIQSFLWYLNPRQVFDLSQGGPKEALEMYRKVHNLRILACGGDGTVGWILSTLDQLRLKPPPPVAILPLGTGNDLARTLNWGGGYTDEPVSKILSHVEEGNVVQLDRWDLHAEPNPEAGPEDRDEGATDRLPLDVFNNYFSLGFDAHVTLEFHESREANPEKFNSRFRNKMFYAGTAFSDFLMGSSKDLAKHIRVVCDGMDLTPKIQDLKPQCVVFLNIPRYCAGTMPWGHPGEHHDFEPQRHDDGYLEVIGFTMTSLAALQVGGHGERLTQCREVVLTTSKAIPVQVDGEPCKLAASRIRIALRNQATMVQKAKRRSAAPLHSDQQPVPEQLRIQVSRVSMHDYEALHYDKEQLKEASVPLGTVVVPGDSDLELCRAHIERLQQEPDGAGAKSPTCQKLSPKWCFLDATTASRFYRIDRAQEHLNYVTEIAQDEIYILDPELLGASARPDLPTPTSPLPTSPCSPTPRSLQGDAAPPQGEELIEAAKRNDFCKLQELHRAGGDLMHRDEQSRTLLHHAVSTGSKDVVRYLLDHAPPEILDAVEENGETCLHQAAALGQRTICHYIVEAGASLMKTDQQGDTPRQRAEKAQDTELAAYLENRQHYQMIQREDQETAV
Test: Biochemical DGK IC50 assay (ADP-Glo, lipid micelle substrate), DGKζ
Conditions: 1 hour preincubation, 1 hour reaction, room temperature
# key: entry, value: log10 of IC50
Values below are the log10 of the recorded IC50, with nM as the unit.

Illustrative cases are given below, each with its answer.
{"columns": ["COMPOUND", "TARGET_SYSTEM", "log10 of IC50"],
 "data": [
  ["CCn1c(CC#N)nc2c(N3C[C@@H](C)N(C(C)c4ccc5c(c4)C(=O)N(C(C)C)C5=O)C[C@@H]3C)nc(=O)n(C)c21 (stereo partly drawn)", "Full length DGKζ (in-house protein M1-V929) (Homo sapiens, UniProt Q13574)", 1.18],
  ["CCn1c(CC#N)nc2c(N3C[C@@H](C)N(C(C)c4ccc5ccc(C)nc5c4)C[C@@H]3C)nc(=O)n(C)c21 (stereo partly drawn)", "Full length DGKζ (in-house protein M1-V929) (Homo sapiens, UniProt Q13574)", 2.33],
  ["CC[C@H]1CN(C(C)c2ccc(F)cc2C(F)(F)F)[C@H](CC)CN1c1nc(=O)n(C)c2c1nc(CC#N)n2C (single isomer, unassigned) [Compound A34a]", "Full length DGKζ (in-house protein M1-V929) (Homo sapiens, UniProt Q13574)", 2.59]
]}

// query Item CCn1c(CC#N)nc2c(N3C[C@@H](C)N(C(C)c4cc(F)cc(C(F)F)c4)C[C@@H]3C)nc(=O)n(C)c21 (stereo partly drawn) has what recorded log10 of IC50?
// result 2.22

// query Also need CCn1c(CC#N)nc2c(N3C[C@@H](C)N(C(C)c4ccc5c(=O)cc(C)n(C)c5c4)C[C@@H]3C)nc(=O)n(C)c21 (stereo partly drawn) , thanks.
// result 3.08
